Experimental Target: T1, mouse IL-21 receptor protein with the Fc region of human IgG1 (mouse, UniProt Q9JHX3 20-237)
T1 construct: also called IL-21R-Fc; murine IL-21R; source: bought: Sino Biological
Method Summary: SPR; Biacore 8K; receptor immobilised on CM5 chip by amine coupling, 25 °C, PBS-P running buffer; analytes with 5% DMSO injected serially; steady-state affinity model
Measurement Context: both partners purified
Recorded Endpoint: Kd (µM)
All answers are understood in µM, so give the number only.

Task item: Endpoint output: Kd of GGGVIQTISHECRMNSWQFLFTCCS (salivaricin B, lantibiotic peptide commonly synthesized by S. salivarius; Chemically synthesized; also called SalB; source: synthetic peptide (solid-phase, RoYo Biotech; HPLC, purity more than 96%)) [salivaricin B] . Value?
Reply: 10.1
